test: AUC (0 to infinity) in 129/SvEvBrd X C57BL/6 F1 mouse at 10 mg/kg, po by LC/MS/MS analysis; assay type: ADME, organism-based, Plasma; set-up: time infinity, dose 10 mg/kg, route oral; settings: 129/SvEvBrd X C57BL/6 F1, mouse, plasma
quantity_name: AUC(0-inf) (µM·h)

| smiles_structure | AUC(0-inf) (µM·h) |
| --- | --- |
| Cc1onc(-c2nc([C@@H](O)[C@H](O)[C@H](O)CO)c[nH]2)c1[N+](=O)[O-].Cl | 8.2 |
| Cl.OC[C@@H](O)[C@@H](O)[C@H](O)c1c[nH]c(-c2cc(C(F)(F)F)on2)n1 | 7.8 |
| Cl.OCc1cc(-c2nc([C@@H](O)[C@H](O)[C@H](O)CO)c[nH]2)no1 | 6.1 |
| Cc1cc(-c2nc([C@@H](O)[C@H](O)[C@H](O)CO)c[nH]2)on1.Cl | 5.3 |
| CN(C)Cc1cc(-c2nc([C@@H](O)[C@H](O)[C@H](O)CO)c[nH]2)no1.Cl | 5.9 |

* * *

test: Clearance in 129/SvEvBrd X C57BL/6 F1 mouse at 1 mg/kg, iv by LC/MS/MS analysis; assay type: ADME, organism-based; design: dose 1 mg/kg, route intravenous; settings: in vivo
quantity_name: clearance (mL/min/kg)
Just the number in mL/min/kg, nothing appended.

(Q) What value of measured clearance is listed for C/C(=N\O)c1nc([C@@H](O)[C@H](O)[C@H](O)CO)c[nH]1.Cl ?
(A) 7.6

* * *

test: AUC (0 to infinity) in 129/SvEvBrd X C57BL/6 F1 mouse at 10 mg/kg, po by LC/MS/MS analysis; type: ADME, organism-based, Plasma; parameters: time infinity, dose 10 mg/kg, route oral; conditions: 129/SvEvBrd X C57BL/6 F1, mouse, plasma
quantity_name: AUC(0-inf) (µM·h)

Sample answers from the record:
| smiles_structure | AUC(0-inf) (µM·h) |
| --- | --- |
| C/C(=N\O)c1nc([C@@H](O)[C@H](O)[C@H](O)CO)c[nH]1.Cl | 8.8 |
| Cc1cc(-c2nc([C@@H](O)[C@H](O)[C@H](O)CO)c[nH]2)no1.Cl | 12.5 |
| CCOc1cc(-c2nc([C@@H](O)[C@H](O)[C@H](O)CO)c[nH]2)no1.Cl | 9.1 |

A = Cl.OC[C@@H](O)[C@@H](O)[C@H](O)c1c[nH]c(C2=NOCC2)n1
B = CC(=O)c1nc([C@@H](O)[C@H](O)[C@H](O)CO)c[nH]1.Cl
C = CCc1conc1-c1nc([C@@H](O)[C@H](O)[C@H](O)CO)c[nH]1.Cl
(Q) Number of compounds to sort: 3. Sort criterion: AUC(0-inf), ascending. Write the labels out in the order the request specifies.
(A) A, B, C

* * *

experiment: Oral bioavailability in Sprague-Dawley rat determined from 1 mg/kg, iv and 10 mg/kg, po by LC/MS/MS analysis; assay type: ADME, organism-based; conditions: in vivo
quantity_name: bioavailability (%)
Just the number in %, nothing appended.

(Q) What value of measured bioavailability is listed for C/C(=N\O)c1nc([C@@H](O)[C@H](O)[C@H](O)CO)c[nH]1.Cl ?
(A) 26
